- system-name: T1, DLG3_1, Q92796
- T1 sequence (Q92796 125-227, limits assumed, looked up): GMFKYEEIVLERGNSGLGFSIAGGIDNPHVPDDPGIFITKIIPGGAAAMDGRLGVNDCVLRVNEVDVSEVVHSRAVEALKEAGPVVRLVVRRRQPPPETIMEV
- assay-details: holdup assay
- Design: key: below the threshold = too weak to quantify, mostly under pKd 3.1 to 4
- experimental-setup: plain residues with an end cap or a label only (N-terminal biotin on a linker: ttds)
value-kind: pKd

{"binder": "QSARYRDTEL [TJP2, Q9UDY2]", "observed": "below the threshold"}
{"binder": "IYVPEAQTRL [DLGAP4, Q9Y2H0]", "observed": "below the threshold"}
{"binder": "STLTIFETAL [ABCC4, O15439]", "observed": 3.84}
{"binder": "IDNDTESTAL [ARHGAP17, Q68EM7]", "observed": "below the threshold"}
{"binder": "TVASEKESVM [SLC1A5, Q15758]", "observed": "below the threshold"}

Exercise: Fill in the blank: the reported pKd of SVWLRKETRV [CYSLTR2, Q9NS75] is ____.
Solution: 4.41

Exercise: Quick check: pKd of GQDSREETQL [KCNT2, Q6UVM3] ?
Solution: below the threshold

Exercise: So what's the measured pKd for this one? VLRLQSETSV [VANGL1, Q8TAA9]
Solution: 3.96
